Experiment: protein stability index of a GFP-peptide fusion (yeast GPS) (PSI 1-4); higher = more stable; sorted into four equal gates, so the index is relative within each strain
Settings: ubr1∆
property: protein stability index
// return just the number, without any unit appended

[ask] Return protein stability index for the following sequence: RAPIYHSKFRSSSGNTW [YML031W/NDC1]
[reply] 2.59

[ask] Return protein stability index for the following sequence: RENVKSKDEPVSKAVES [SIR4]
[reply] 3.31

[ask] Return protein stability index for the following sequence: KNKPELYQIDYLGTKVE [PRE1]
[reply] 3.16

[ask] Return protein stability index for the following sequence: VLKYMLLSKIMLNLIDD [RPN6]
[reply] 1.66

[ask] Return protein stability index for the following sequence: RSTKDMIDAVFEQDSHL [SNF6]
[reply] 3.14

[ask] Return protein stability index for the following sequence: LKDLMDLCDVVESKFTE [RPC19]
[reply] 3.26

[ask] Return protein stability index for the following sequence: ITQDGKFAYKIDKITDG [YMR129W/POM152]
[reply] 2.85

====

Experiment: protein stability index of a GFP-peptide fusion (yeast GPS) (PSI 1-4); higher = more stable; sorted into four equal gates, so the index is relative within each strain
Conditions: doa10∆
property: protein stability index
// return just the number, without any unit appended

[ask] Return protein stability index for the following sequence: NLSQENDNEGKHISASI [YAR002W/NUP60]
[reply] 3.04

[ask] Return protein stability index for the following sequence: TFRIFHNHDTGCDENDS [YDL088C/ASM4]
[reply] 2.92

[ask] Return protein stability index for the following sequence: NMYTSTQKTELEIDNKD [SIR4]
[reply] 3.04

[ask] Return protein stability index for the following sequence: MNDVINTEEVNRLEKEQ [LIN1]
[reply] 2.99

[ask] Return protein stability index for the following sequence: THIAESAKEIAKASGCD [MCD1]
[reply] 3.16

[ask] Return protein stability index for the following sequence: NVKYRAVVFKPFKGEVV [RPB7]
[reply] 2.96

[ask] Return protein stability index for the following sequence: IREGQNQKIPDNVIVIN [SIR3]
[reply] 2.9

[ask] Return protein stability index for the following sequence: TEQIKMRILSNDITNLQ [SRB8]
[reply] 2.33

[ask] Return protein stability index for the following sequence: IPDHLAELIPELYSFQQ [SNF12]
[reply] 3.02

[ask] Return protein stability index for the following sequence: NDTSSGTNAMLPSPESL [SNF5]
[reply] 2.73

[ask] Return protein stability index for the following sequence: KSRIVKVVGPRGTLTKN [RPL9A]
[reply] 2.66

[ask] Return protein stability index for the following sequence: TPAPKISYKKGAASNRT [RPL36A]
[reply] 2.98

[ask] Return protein stability index for the following sequence: QKKILSIRLKVPPTIAQ [RPL8A]
[reply] 1.53

[ask] Return protein stability index for the following sequence: FRHFIGIKAKHDKNIQK [ISW2]
[reply] 2.68

[ask] Return protein stability index for the following sequence: DFIGHNSNINTLTASPD [ASC1]
[reply] 2.83

====

Test: protein stability index of a GFP-peptide fusion (yeast GPS) (PSI 1-4); higher = more stable; sorted into four equal gates, so the index is relative within each strain
Settings: san1∆
Threshold check on protein stability index: at or above 3 gives 1 (yes), strictly below gives 0 (no).

[ask] Entry EFNSIDRVIFRVPIRSE [PRP8] : is its protein stability index no less than 3?
[reply] 1 (yes)

[ask] Entry ELSKSRALQENGIIMNG [YMR153W/NUP53] : is its protein stability index no less than 3?
[reply] 0 (no)

[ask] Entry AFGSSATDISGELRDYI [YJR042W/NUP85] : is its protein stability index no less than 3?
[reply] 0 (no)

[ask] Entry TFPVGRVHRLLRRGNYA [HTA1] : is its protein stability index no less than 3?
[reply] 0 (no)

[ask] Entry YKLGKVKKVQLGKKGVP [RPS4A] : is its protein stability index no less than 3?
[reply] 1 (yes)

[ask] Entry RRKDTSMVLFFVCLSCS [RPB9] : is its protein stability index no less than 3?
[reply] 0 (no)

[ask] Entry TRRFVNVTLVNGKRRMN [RPS30A] : is its protein stability index no less than 3?
[reply] 0 (no)
